Target: PSMA-expressing C4-2 cells (Homo sapiens, UniProt Q04609)
Construct: PSMA-expressing C4-2 cells (ATCC, Cat. No. CRL-3314) were cultured in RPMI-1640; host or cells: C4-2 cells
Sequence (Q04609 whole entry): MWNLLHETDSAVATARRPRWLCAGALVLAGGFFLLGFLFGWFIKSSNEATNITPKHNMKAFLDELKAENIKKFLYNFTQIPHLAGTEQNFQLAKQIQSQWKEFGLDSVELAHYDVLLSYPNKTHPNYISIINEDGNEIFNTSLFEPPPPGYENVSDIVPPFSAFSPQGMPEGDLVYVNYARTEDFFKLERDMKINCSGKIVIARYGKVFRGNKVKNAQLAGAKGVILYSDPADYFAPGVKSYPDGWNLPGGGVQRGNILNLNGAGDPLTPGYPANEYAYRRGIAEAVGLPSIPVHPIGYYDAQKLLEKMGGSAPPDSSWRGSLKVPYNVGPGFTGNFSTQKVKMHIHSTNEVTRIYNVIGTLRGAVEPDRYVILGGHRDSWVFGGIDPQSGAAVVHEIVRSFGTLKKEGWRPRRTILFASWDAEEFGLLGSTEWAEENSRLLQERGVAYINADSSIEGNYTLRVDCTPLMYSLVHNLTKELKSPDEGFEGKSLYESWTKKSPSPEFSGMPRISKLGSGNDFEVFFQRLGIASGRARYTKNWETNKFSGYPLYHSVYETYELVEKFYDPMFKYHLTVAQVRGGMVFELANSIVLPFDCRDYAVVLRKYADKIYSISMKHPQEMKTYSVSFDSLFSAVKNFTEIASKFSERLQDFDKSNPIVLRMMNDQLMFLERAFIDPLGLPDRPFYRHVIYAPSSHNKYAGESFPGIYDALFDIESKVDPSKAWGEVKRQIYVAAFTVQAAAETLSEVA
Assay: FACS binding assay (competition with 50 nM PSM-0183)
Details: FACS binding, PSMA-expressing C4-2 cells; pIC50 category; read-out: pIC50 [C4-2] CAT (converted)
Numbered stars: 1 amine (or outer) side, 2 acyl side, 3 side chain; on linkers, the order of the positions; unused ones are H or OH. Bridge positions count the residues as written; N and C are the ends. Square brackets hold non-standard residues; d marks the D form. Peptide text beside a SMILES is read from it. * marks the point of attachment. DOTA = O=C(O)CN1CCN(CC(=O)O)CCN(CC(=O)*)CCN(CC(=O)O)CC1; Phe(4-Cl) = N[C@@H](Cc1ccc(Cl)cc1)C(=O)O; X1 = O=C(CC1CCN([*:1])CC1)[*:2]; Tle = CC(C)(C)[C@H](N)C(=O)O; Aib = CC(C)(N)C(=O)O; βAla = NCCC(=O)O
A collection of compounds and their measured IC50

Data request: Given the entry C[C@@H](O)[C@H](NC(=O)[C@@H](NC(=O)[C@@H]1CSSC[C@H](NC(=O)[C@H](Cc2ccc(Cl)cc2)NC(=O)C(C)(C)NC(=O)CCNC(=O)CN2CCN(CC(=O)O)CCN(CC(=O)O)CCN(CC(=O)O)CC2)C(=O)N[C@@H](CCCCN)C(=O)N[C@@H](CCCNC(=N)N)C(=O)NC(C)(C)C(=O)N[C@@H](CC(N)=O)C(=O)N1)C(C)(C)C)C(N)=O [PSM-0352] ({DOTA-βAla}-[Aib][Phe(4-Cl)]CKR[Aib]NC[Tle]T-NH2; disulfide 3-8) , report its measured IC50.
Data returned: < 200 nM

Data request: And the next one, CC(=O)NC(C)(C)C(=O)N[C@@H](Cc1ccc(Cl)cc1)C(=O)N[C@H]1CSSC[C@@H](C(=O)N[C@H](C(=O)N[C@H](C(=O)N2CCC(CC(=O)N[C@H](CCCCNC(=O)CN3CCN(CC(=O)O)CCN(CC(=O)O)CCN(CC(=O)O)CC3)C(N)=O)CC2)[C@@H](C)O)C(C)(C)C)NC(=O)[C@H](CC(N)=O)NC(=O)C(C)(C)NC(=O)[C@H](CCCNC(=N)N)NC(=O)[C@H](CCCCN)NC1=O [PSM-0349] (Ac-[Aib][Phe(4-Cl)]CKR[Aib]NC[Tle]T[X1][dK](DOTA)-NH2; disulfide 3-8) ?
Data returned: < 200 nM

----------
Target: recombinant human PSMA (Homo sapiens, UniProt Q04609)
Sequence (Q04609 whole entry): as above
Test: Enzyme inhibition assay (GCPII Inhibitor Screening Kit, fluorescence-based)
Conditions: carboxypeptidase activity of recombinant human PSMA; highest final concentration 1 μM
Procedure: This peptidase activity hydrolyzes γ-peptide bonds between N-acetyl amino acid and glutamate of its substrate. The carboxypeptidase inhibition of recombinant human PSMA by test compounds was assessed using a commercial fluorescence-based PSMA activity inhibition assay. The employed Glutamate Carboxypeptidase II (GCPII) Inhibitor Screening Kit (BioVision, Cat #K440-100) is a fluorescence-based, enzymatic in vitro assay to measure the potency of PSMA inhibitors. […]
Bridge positions count the residues as written; N and C are the ends. Square brackets hold non-standard residues; d marks the D form. Peptide text beside a SMILES is read from it. Tle = CC(C)(C)[C@H](N)C(=O)O; Aib = CC(C)(N)C(=O)O
parameter: IC50

Data request: Given the entry CC(=O)N[C@H](C(=O)NC(C)(C)C(=O)N[C@@H](Cc1ccccc1)C(=O)N[C@H]1CSSC[C@@H](C(=O)N[C@H](C(=O)N[C@H](C(=O)N[C@@H](CC(=O)O)C(N)=O)[C@@H](C)O)C(C)(C)C)NC(=O)[C@H](CC(N)=O)NC(=O)C(C)(C)NC(=O)[C@H](CCCNC(=N)N)NC(=O)[C@H](CCCCN)NC1=O)[C@@H](C)O [PSM-0374] (Ac-T[Aib]FCKR[Aib]NC[Tle]TD-NH2; disulfide 4-9) , report its measured IC50.
Data returned: > 1000 nM
